molecular target: HLA-A*26:01; assay: IEDB peptide-MHC binding, purified MHC/competitive/radioactivity; filed as Kd, often an IC50 or EC50 that approximates it; bounds were set here for any values at or beyond the usual limits of such assays; details: source organism: Mammarenavirus guanaritoense
READOUT_NAME: Kd (nM)
Please respond with the number in nM and leave the unit unwritten.

[ask] Using the record for ELLSYCVSLF , report its Kd.
[reply] 99.3

---

biological target: HLA-A*02:02; experiment: IEDB peptide-MHC binding, purified MHC/competitive/radioactivity; filed as Kd, often an IC50 or EC50 that approximates it; bounds were set here for any values at or beyond the usual limits of such assays; settings: source organism: Homo sapiens
READOUT_NAME: pKd
Reminder that pKd means the negative base-10 logarithm of the concentration expressed in mol/L.

[ask] Query: pKd; subject: QLFNHTMFIL
[reply] 9.37

---
[ask] What value of pKd has been recorded for this entry: DLEDLKDQI
[reply] 4.79

---

biological target: HLA-B*18:01; assay: IEDB peptide-MHC binding, purified MHC/direct/fluorescence; filed as Kd, often an IC50 or EC50 that approximates it; bounds were set here for any values at or beyond the usual limits of such assays; conditions: source organism: Francisella tularensis subsp. holarctica LVS
READOUT_NAME: Kd

[ask] Would you mind telling me what Kd value was observed for KRINSLIKY ?
[reply] ≥ 20 µM

---

molecular target: HLA-A*31:01; experiment: IEDB peptide-MHC binding, purified MHC/direct/fluorescence; filed as Kd, often an IC50 or EC50 that approximates it; bounds were set here for any values at or beyond the usual limits of such assays; conditions: source organism: Campylobacter jejuni
READOUT_NAME: pKd
Note on units: pKd is unitless, being -log10 of a concentration expressed in mol/L.

[ask] Request - read-out pKd | tested on HLA-A*31:01 | sequence ALIVAIWDK
[reply] 4.93

---

molecular target: HLA-B*08:01; test: IEDB peptide-MHC binding, purified MHC/direct/fluorescence; filed as Kd, often an IC50 or EC50 that approximates it; bounds were set here for any values at or beyond the usual limits of such assays; settings: source organism: Pseudomonas aeruginosa
READOUT_NAME: pKd
# log scale: pKd equals minus log10 of the concentration in mol/L

[ask] Item YTFCRLNVK has what recorded pKd?
[reply] 4.97

---

target: HLA-C*06:02; assay: IEDB peptide-MHC binding, purified MHC/direct/fluorescence; filed as Kd, often an IC50 or EC50 that approximates it; bounds were set here for any values at or beyond the usual limits of such assays; conditions: source organism: Vaccinia virus GLV-1h68
READOUT_NAME: Kd (µM)
Write the answer as a number in µM, unit excluded.

[ask] Please give the measured Kd for this sequence: LMYDIINSV
[reply] 4.44

---

molecular target: HLA-B*15:01; assay: IEDB peptide-MHC binding, purified MHC/direct/fluorescence; filed as Kd, often an IC50 or EC50 that approximates it; bounds were set here for any values at or beyond the usual limits of such assays; conditions: source organism: Buffalopox virus
READOUT_NAME: Kd

[ask] If you can, please state the reported Kd value of IHSDQLSKF .
[reply] ≥ 20 µM

---

biological target: HLA-A*02:11; experiment: IEDB peptide-MHC binding, purified MHC/competitive/fluorescence; filed as Kd, often an IC50 or EC50 that approximates it; bounds were set here for any values at or beyond the usual limits of such assays; settings: source organism: Haemophilus influenzae 22.1-21
READOUT_NAME: pKd
Notebook: values listed as pKd are -log10 of the concentration (mol/L).

[ask] Could you share which pKd value was measured for RFLEDYFGV ?
[reply] 8.39

---

target: HLA-A*02:12; assay: IEDB peptide-MHC binding, purified MHC/direct/fluorescence; filed as Kd, often an IC50 or EC50 that approximates it; bounds were set here for any values at or beyond the usual limits of such assays; conditions: source organism: Ravn virus - Ravn, Kenya, 1987
READOUT_NAME: pKd
# log scale: pKd equals minus log10 of the concentration in mol/L

[ask] Form field: reported pKd of ALKEAIEMV
[reply] 8.40

---

biological target: HLA-B*51:01; experiment: IEDB peptide-MHC binding, purified MHC/competitive/fluorescence; filed as Kd, often an IC50 or EC50 that approximates it; bounds were set here for any values at or beyond the usual limits of such assays; conditions: source organism: Influenza A virus (A/Gf/HK/SSP607/2003(H9N2))
READOUT_NAME: Kd

[ask] GET /values?readout=Kd&item= AMITYITRK
[reply] ≥ 20 µM

---

biological target: HLA-B*44:02; assay: IEDB peptide-MHC binding, purified MHC/competitive/radioactivity; filed as Kd, often an IC50 or EC50 that approximates it; bounds were set here for any values at or beyond the usual limits of such assays; settings: source organism: Mammarenavirus brazilense
READOUT_NAME: Kd

[ask] Fill blank: measured Kd of the sequence IDPLIVSTS is ____.
[reply] ≥ 77.9 µM

---

molecular target: HLA-A*31:01; assay: IEDB peptide-MHC binding, purified MHC/direct/fluorescence; filed as Kd, often an IC50 or EC50 that approximates it; bounds were set here for any values at or beyond the usual limits of such assays; details: source organism: Brucella melitensis
READOUT_NAME: Kd (nM)
// return numeric value only (unit: nM, not printed)

Answered examples (2):
[ask] Could you share what Kd was measured for RLWNGRRCR , tested on HLA-A*31:01?
[reply] 61.5

[ask] Would you kindly repeat that for RVISDGYFK ?
[reply] 42

Now for another entry.
[ask] Could you share what Kd was measured for RVRIPDVAR , tested on HLA-A*31:01?
[reply] 23.4

---

target: HLA-A*02:01; test: IEDB peptide-MHC binding, purified MHC/competitive/fluorescence; filed as Kd, often an IC50 or EC50 that approximates it; bounds were set here for any values at or beyond the usual limits of such assays; settings: source organism: Bacillus cereus G9241
READOUT_NAME: pKd
The meaning of pKd here: minus log10 of the concentration in molar units.

[ask] Requested field: pKd. Item: YLKKKNHPL
[reply] 8.22

---

target: HLA-A*26:01; experiment: IEDB peptide-MHC binding, purified MHC/direct/fluorescence; filed as Kd, often an IC50 or EC50 that approximates it; bounds were set here for any values at or beyond the usual limits of such assays; details: source organism: Haemophilus influenzae
READOUT_NAME: Kd (µM)
Lab book: enter the figure in µM, no units written.

[ask] Param item = ETKGKRRLL ; retrieve measured Kd.
[reply] 7.12

---

target: HLA-B*46:01; experiment: IEDB peptide-MHC binding, purified MHC/competitive/fluorescence; filed as Kd, often an IC50 or EC50 that approximates it; bounds were set here for any values at or beyond the usual limits of such assays; conditions: source organism: Lechiguanas virus
pKd: −log10 of the molar value.
READOUT_NAME: pKd

[ask] Could you tell me which pKd is on file for AMPKTIYEL ?
[reply] ≤ 4.70

---

target: HLA-B*58:01; assay: IEDB peptide-MHC binding, purified MHC/direct/fluorescence; filed as Kd, often an IC50 or EC50 that approximates it; bounds were set here for any values at or beyond the usual limits of such assays; settings: source organism: Influenza A virus (A/Duck/Shantou/2134/00(H9N2))
READOUT_NAME: Kd

[ask] Write down the reported Kd of ASRGLWDSF , test system: HLA-B*58:01.
[reply] ≥ 5 µM

---

target: HLA-A*02:12; experiment: IEDB peptide-MHC binding, purified MHC/direct/fluorescence; filed as Kd, often an IC50 or EC50 that approximates it; bounds were set here for any values at or beyond the usual limits of such assays; conditions: source organism: Orthohantavirus hantanense
READOUT_NAME: Kd

[ask] So what does the record say about Kd for LVRDITESL ?
[reply] ≥ 20 µM

---

molecular target: HLA-B*51:01; test: IEDB peptide-MHC binding, purified MHC/competitive/radioactivity; filed as Kd, often an IC50 or EC50 that approximates it; bounds were set here for any values at or beyond the usual limits of such assays; settings: source organism: Dengue virus 1 Brazil/97-11/1997
pKd reference
Notebook: values listed as pKd are -log10 of the concentration (mol/L).

[ask] Dear colleague, I am looking for the recorded pKd of the following sequence: MATYGWNLV
[reply] 5.90

Attention now turns to another entry.
[ask] Using the record for WPISKMDLGV , report its pKd.
[reply] 5.50

---

molecular target: HLA-B*18:01; test: IEDB peptide-MHC binding, purified MHC/direct/fluorescence; filed as Kd, often an IC50 or EC50 that approximates it; bounds were set here for any values at or beyond the usual limits of such assays; conditions: source organism: Bacillus anthracis
READOUT_NAME: Kd

[ask] Name the reported Kd value associated with the sequence YFENSDLNL
[reply] ≥ 20 µM

---

molecular target: HLA-A*26:01; experiment: IEDB peptide-MHC binding, purified MHC/competitive/fluorescence; filed as Kd, often an IC50 or EC50 that approximates it; bounds were set here for any values at or beyond the usual limits of such assays; settings: source organism: Seoul virus 80-39
READOUT_NAME: Kd

[ask] // returns reported Kd for input LVRDITESL
[reply] ≥ 20 µM
